- assay-target: T1, murine CD19 protein (murine, UniProt P25918 19-287, limits assumed)
- T1 construct: also called mouse CD19-his protein
- T1 sequence (looked up): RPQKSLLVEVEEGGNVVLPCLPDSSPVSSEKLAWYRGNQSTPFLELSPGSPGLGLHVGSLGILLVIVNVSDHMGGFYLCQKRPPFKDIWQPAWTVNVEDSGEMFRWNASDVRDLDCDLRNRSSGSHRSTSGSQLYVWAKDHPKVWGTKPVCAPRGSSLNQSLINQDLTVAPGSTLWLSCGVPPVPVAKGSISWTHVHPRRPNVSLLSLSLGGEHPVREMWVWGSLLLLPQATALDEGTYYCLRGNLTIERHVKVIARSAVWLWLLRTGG
- test-protocol: ELISA, murine CD19 coated
readout-label: OD450 at 0.001 nM (OD450)
Your answer should be a plain number; it is taken to be in OD450.

Fill in the blank: the reported OD450 at 0.001 nM of FMC63.26-mIgG1 (antibody, V domains shown, Humanized FMC63; also called FMC63-L2H6) VH: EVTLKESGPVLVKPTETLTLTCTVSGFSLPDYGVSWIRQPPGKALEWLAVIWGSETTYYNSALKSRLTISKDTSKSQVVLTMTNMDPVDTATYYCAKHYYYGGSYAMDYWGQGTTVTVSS VL: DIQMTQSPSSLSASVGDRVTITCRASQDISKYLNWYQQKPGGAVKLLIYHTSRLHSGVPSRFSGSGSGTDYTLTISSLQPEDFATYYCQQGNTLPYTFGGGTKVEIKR is ____.
0.07

Taken from patent US20230406922A1.
